Give measured pKd for each item. Keep answers brief.
Biological target: T1, human IL-6 (human, UniProt P05231 30-212)
T1 construct: also called interleukin-6
T1 sequence (P05231 30-212 limits assumed): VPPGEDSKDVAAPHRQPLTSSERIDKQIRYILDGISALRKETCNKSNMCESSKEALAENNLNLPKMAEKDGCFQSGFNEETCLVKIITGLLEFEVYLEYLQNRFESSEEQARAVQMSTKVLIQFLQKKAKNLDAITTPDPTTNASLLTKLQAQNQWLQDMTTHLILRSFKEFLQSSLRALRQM
Assay: SPR (Biacore T200), antibody from cell supernatant captured on Protein A, IL-6 flowed over, 37 C
Protocol: Those four positions were selected based on their tolerance for mutations as observed in bacterial and mammalian screens. […] These cultures were centrifuged and supernatants containing secreted antibodies were harvested and diluted in HBS-EP+ running buffer (1:20 ratio). Antibodies were captured on a Protein A chip (GE) by injecting 1:20 cell supernatant dilutions at 10 μL/min for 60 seconds. […]
Kindly note that pKd refers to -log10 of the concentration in mol/L and answer with the value alone.

**Q:** Report pKd for anti-IL-6 antibody, heavy chain T65G, G66D / light chain WT (antibody, human IgG1, V domains shown, Derived as m2; Engineered human IgG1) VH: EVQLVESGGGLVQPGGSLRLSCAASGFTFSPFAMSWVRQAPGKGLEWVAKISPGGSWTYYSDTVGDRFTFSLDTSKSTAYLQMNSLRAEDTAVYYCARQLWGYYALDIWGQGTLVTVSS VL: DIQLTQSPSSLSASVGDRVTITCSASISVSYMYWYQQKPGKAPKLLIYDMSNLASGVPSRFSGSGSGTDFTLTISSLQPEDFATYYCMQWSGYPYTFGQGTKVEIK please.
**A:** 9.91

**Q:** Report pKd for anti-IL-6 antibody, heavy chain S35F, G66D / light chain WT (antibody, human IgG1, V domains shown, Derived as m2; Engineered human IgG1) VH: EVQLVESGGGLVQPGGSLRLSCAASGFTFSPFAMFWVRQAPGKGLEWVAKISPGGSWTYYSDTVTDRFTFSLDTSKSTAYLQMNSLRAEDTAVYYCARQLWGYYALDIWGQGTLVTVSS VL: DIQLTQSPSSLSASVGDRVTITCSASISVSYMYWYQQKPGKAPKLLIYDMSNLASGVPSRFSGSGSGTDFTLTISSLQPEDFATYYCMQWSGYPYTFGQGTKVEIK please.
**A:** 9.13

**Q:** Report pKd for anti-IL-6 antibody, heavy chain I51H, G66D / light chain WT (antibody, human IgG1, V domains shown, Derived as m2; Engineered human IgG1) VH: EVQLVESGGGLVQPGGSLRLSCAASGFTFSPFAMSWVRQAPGKGLEWVAKHSPGGSWTYYSDTVTDRFTFSLDTSKSTAYLQMNSLRAEDTAVYYCARQLWGYYALDIWGQGTLVTVSS VL: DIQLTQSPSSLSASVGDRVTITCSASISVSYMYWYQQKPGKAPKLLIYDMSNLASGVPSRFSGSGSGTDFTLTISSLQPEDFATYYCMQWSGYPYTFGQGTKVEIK please.
**A:** 9.46

**Q:** Report pKd for anti-IL-6 antibody, heavy chain S35P, G66D / light chain WT (antibody, human IgG1, V domains shown, Derived as m2; Engineered human IgG1) VH: EVQLVESGGGLVQPGGSLRLSCAASGFTFSPFAMPWVRQAPGKGLEWVAKISPGGSWTYYSDTVTDRFTFSLDTSKSTAYLQMNSLRAEDTAVYYCARQLWGYYALDIWGQGTLVTVSS VL: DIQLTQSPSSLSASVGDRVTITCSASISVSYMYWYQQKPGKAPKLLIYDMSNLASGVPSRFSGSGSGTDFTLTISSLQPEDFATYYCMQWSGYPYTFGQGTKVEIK please.
**A:** 7.92

**Q:** Report pKd for anti-IL-6 antibody, heavy chain S35H, G66D / light chain WT (antibody, human IgG1, V domains shown, Derived as m2; Engineered human IgG1) VH: EVQLVESGGGLVQPGGSLRLSCAASGFTFSPFAMHWVRQAPGKGLEWVAKISPGGSWTYYSDTVTDRFTFSLDTSKSTAYLQMNSLRAEDTAVYYCARQLWGYYALDIWGQGTLVTVSS VL: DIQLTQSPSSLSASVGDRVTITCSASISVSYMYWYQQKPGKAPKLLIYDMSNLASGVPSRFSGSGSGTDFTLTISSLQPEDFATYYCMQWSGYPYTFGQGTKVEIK please.
**A:** 9.87
